assay: qHTS assay to identify small molecule agonists of the TGF-beta/Smad signaling pathway (AID 1346859); details: SBE-bla HEK293T, TGF-beta/Smad beta-lactamase reporter, 5 h; series mostly up to 76.8 µM
Results filed as inconclusive are left out. Active and inactive are the calls of the source. Calls follow the shape of the dose curve; as a rule, active = well fitted activation curve with a large enough effect in the signal ratio in the repeat runs (not every such curve was filed as active); inconclusive = weak or mixed curves; inactive = flat fitted curve, though single readings scatter; the % refers to the signal ratio.
metricName: activation

Illustrative cases are given below, each with its answer.
- CC(CO)(CO)CO: inactive
- CC(C)[C@H]1CC[C@H](C)C[C@@H]1O: inactive
- N#Cc1ccccc1O: inactive
- CC(O)CC(C)O (stereo unspecified): inactive
- c1ccc(-c2nn[nH]n2)cc1: inactive

Query: For the compound CCOC(=O)CC1(C)OCC(C)O1 (stereo unspecified) , what activation is on record?
Response: inactive

Query: Quick one: activation of Cc1ccc(N)cc1S(=O)(=O)O ?
Response: inactive

Query: // activation lookup, key: CCC(C)C(=O)OCCc1ccccc1 (stereo unspecified)
Response: inactive

Query: activation; subject: CN(C)CCN(C)CCO
Response: inactive

Query: # activation lookup, item CC1=NN(c2ccc(S(=O)(=O)O)cc2)C(=O)C1
Response: inactive

Query: Which activation is reported for this compound? CC(=O)CCC1=C(C)CCCC1(C)C
Response: inactive

Query: Any idea what activation was measured for CC(C)C[C@@H]1[C@H](c2ccccc2)OC(=O)N1CCCN1CCCCCC1 ?
Response: inactive

Query: Would you mind telling me what activation value was observed for O=NN(CCCl)C(=O)NC1CCCCC1 ?
Response: inactive

Query: # activation lookup, item CC(O)COC(C)(C)C (stereo unspecified)
Response: inactive

Query: If you can, please state the reported activation value of COC(=O)CCCCC(=O)O .
Response: inactive

Query: Quick one: activation for CSc1cnccn1 ?
Response: inactive

meta.source: PubChem BioAssay (Tox21)
